Give measured Emax for each item. Keep answers brief.
target: Human recombinant PDE3A (hPDE3A) (Homo sapiens); construct: purchased Scottish Biomedical; host or cells: Sf9 insect cells; assay: In vitro assay PDE3A (SPA, 3H-cAMP hydrolysis); format: biochemical; conditions: read-out: hPDE3B Emax; read-out: Emax;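 also: the method names PDE3A and the table heading PDE3B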
Sequence (Q14432 whole entry): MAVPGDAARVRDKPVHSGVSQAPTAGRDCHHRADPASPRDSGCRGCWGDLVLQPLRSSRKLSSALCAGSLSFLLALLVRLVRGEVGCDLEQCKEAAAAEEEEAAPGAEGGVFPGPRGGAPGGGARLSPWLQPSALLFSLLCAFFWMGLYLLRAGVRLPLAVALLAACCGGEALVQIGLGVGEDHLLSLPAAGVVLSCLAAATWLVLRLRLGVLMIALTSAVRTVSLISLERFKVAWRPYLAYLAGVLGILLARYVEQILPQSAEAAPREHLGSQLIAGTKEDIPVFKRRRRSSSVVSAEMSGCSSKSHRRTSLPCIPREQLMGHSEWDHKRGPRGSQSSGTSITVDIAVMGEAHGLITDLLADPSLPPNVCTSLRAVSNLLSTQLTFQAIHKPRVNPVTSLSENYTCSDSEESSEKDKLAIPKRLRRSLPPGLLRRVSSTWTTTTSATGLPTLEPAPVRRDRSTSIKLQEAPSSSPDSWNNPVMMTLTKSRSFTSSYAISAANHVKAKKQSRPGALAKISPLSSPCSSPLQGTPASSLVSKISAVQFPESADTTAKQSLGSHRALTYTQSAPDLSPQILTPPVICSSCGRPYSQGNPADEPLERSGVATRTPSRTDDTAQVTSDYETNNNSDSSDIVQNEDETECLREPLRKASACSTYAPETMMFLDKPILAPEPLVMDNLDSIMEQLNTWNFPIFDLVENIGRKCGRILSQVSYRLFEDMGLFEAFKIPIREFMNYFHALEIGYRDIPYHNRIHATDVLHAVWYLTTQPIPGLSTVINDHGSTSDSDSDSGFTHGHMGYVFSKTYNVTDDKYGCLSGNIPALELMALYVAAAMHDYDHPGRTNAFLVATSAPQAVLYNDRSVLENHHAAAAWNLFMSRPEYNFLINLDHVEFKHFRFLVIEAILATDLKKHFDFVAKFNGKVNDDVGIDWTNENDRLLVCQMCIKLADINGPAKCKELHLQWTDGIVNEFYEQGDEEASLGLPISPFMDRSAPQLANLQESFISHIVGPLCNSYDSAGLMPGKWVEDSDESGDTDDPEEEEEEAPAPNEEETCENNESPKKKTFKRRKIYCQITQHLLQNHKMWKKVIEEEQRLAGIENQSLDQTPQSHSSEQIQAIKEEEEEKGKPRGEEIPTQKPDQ

Value lookup for Emax; key = Cc1cc([C@H]2CN(C(=O)c3ccc(C)c(C)n3)CC[C@@H]2C)n2ncnc2n1
14%

How about C[C@@H]1CCN(C(=O)c2cc(C3CC3)ncc2F)C[C@H]1c1cc(C(F)F)nc2ncnn12 ?
78%

How about C[C@@H]1CCN(C(=O)c2ccc(F)c(C3CC3)c2)C[C@H]1c1cc(C(F)F)nc2ncnn12 ?
81%

How about C[C@@H]1CCN(C(=O)c2cccnc2F)C[C@H]1c1cc(C(F)F)nc2ncnn12 ?
37%

###

molecular target: Human recombinant PDE10A (hPDE10A) (Homo sapiens); construct: His tag (inferred from metal chelate purification); made in house; host or cells: Sf9 insect cells (baculovirus); assay: In vitro assay PDE10A, human clone (SPA, 3H-cAMP hydrolysis); assay type: biochemical; conditions: human clone (h), default; read-out: hPDE10A2 pIC50 (converted)
Sequence (Q9Y233 267-1055): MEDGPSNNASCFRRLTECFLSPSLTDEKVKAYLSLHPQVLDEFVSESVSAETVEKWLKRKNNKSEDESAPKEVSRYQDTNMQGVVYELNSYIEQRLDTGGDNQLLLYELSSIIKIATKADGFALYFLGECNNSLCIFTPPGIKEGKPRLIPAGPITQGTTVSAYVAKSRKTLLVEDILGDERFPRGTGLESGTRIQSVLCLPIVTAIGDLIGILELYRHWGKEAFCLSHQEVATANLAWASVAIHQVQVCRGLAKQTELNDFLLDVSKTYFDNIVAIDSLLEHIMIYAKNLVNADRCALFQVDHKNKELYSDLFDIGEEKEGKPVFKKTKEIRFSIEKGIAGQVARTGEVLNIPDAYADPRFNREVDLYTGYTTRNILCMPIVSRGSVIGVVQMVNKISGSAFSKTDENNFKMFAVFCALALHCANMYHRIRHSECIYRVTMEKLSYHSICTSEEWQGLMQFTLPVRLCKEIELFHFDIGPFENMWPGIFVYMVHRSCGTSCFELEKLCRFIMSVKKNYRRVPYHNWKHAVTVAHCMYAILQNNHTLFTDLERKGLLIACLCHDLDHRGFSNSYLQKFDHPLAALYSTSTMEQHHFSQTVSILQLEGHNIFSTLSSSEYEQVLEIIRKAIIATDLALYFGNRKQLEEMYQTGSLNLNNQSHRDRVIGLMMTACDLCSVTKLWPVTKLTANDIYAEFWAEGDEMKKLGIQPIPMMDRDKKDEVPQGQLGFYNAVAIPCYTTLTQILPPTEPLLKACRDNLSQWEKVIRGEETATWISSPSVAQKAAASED
Note that class boundaries on IC50 are low = under 0.2 µM, middle = from 0.2 µM up to 2 µM, high = 2 µM and over

Please classify: Cc1ccc(C(=O)N2CCC[C@](C)(c3cc(C(F)F)nc4ncnn34)C2)c(C)n1 (single isomer, unassigned) [Compound 210]
high

How about C[C@@H]1CCN(C(=O)c2cccc(C#N)c2)C[C@H]1c1cc(C(F)F)nc2ncnn12 [Compound 197] ?
middle

How about Cc1cnc(C(F)(F)F)cc1C(=O)N1CC[C@@H](C)[C@H](c2cc(C(F)F)nc3ncnn23)C1 [Compound 52] ?
high

How about Cc1cc(C(=O)N2CC[C@@H](C)[C@H](c3cc(C(F)F)nc4ncnn34)C2)c(C)s1 [Compound 65] ?
middle

How about C[C@@H]1CCN(C(=O)c2ccc(C#N)cn2)C[C@H]1c1cc(C(F)F)nc2ncnn12 [Compound 234] ?
high

How about Cc1csc2ccc(C(=O)N3CC[C@@H](C)[C@H](c4cc(C(F)F)nc5ncnn45)C3)nc12 [Compound 100] ?
low

How about C[C@@H]1CCN(C(=O)c2ccnn2C)C[C@H]1c1cc(C(F)F)nc2ncnn12 [Compound 57] ?
high

How about C[C@]1(c2cc(C(F)F)nc3ncnn23)CCCN(C(=O)c2ccc3nccn3c2)C1 (single isomer, unassigned) [Compound 212] ?
high

How about C[C@@H]1CCN(C(=O)c2cccc3ocnc23)C[C@H]1c1cc(C(F)F)nc2ncnn12 [Compound 183] ?
high

How about C[C@@H]1CCN(C(=O)c2cc3ccccc3n2C)C[C@H]1c1cc(C(F)F)nc2ncnn12 [Compound 114] ?
low

How about Cc1cc(C(=O)N2CC[C@@H](C)[C@H](c3cc(C(F)F)nc4ncnn34)C2)cc(OC(C)C)n1 [Compound 107] ?
low

How about C[C@@H]1CCN(C(=O)c2cnc(O)c(Cl)c2)C[C@H]1c1cc(C(F)F)nc2ncnn12 [Compound 173] ?
middle

How about C[C@@H]1CCN(C(=O)c2cncnc2)C[C@H]1c1cc(C(F)F)nc2ncnn12 [Compound 249] ?
high

How about C[C@@H]1CCN(C(=O)c2ccc(Br)cn2)C[C@H]1c1cc(C(F)F)nc2ncnn12 [Compound 153] ?
middle

How about C[C@@H]1CCN(C(=O)c2cccc(N)n2)C[C@H]1c1cc(C(F)F)nc2ncnn12 [Compound 162] ?
high

How about C[C@]1(c2cc(C(F)F)nc3ncnn23)CCCN(C(=O)c2ccc3occc3c2)C1 (single isomer, unassigned) [Compound 209] ?
high

How about C[C@@H]1CCN(C(=O)c2ccc(Cl)c(Cl)c2)C[C@H]1c1cc(C(F)F)nc2ncnn12 [Compound 111] ?
low

Values from patent US10947242B2
